- subject.of.test: T1, human CD40 full-length (human, UniProt P25942 21-277)
- T1 construct: Also used for CD40 of Daudi cells, of CD40-expressing HEK293 cells and of the BPS CD40/NFkB HEK293 reporter cells where the row says so; also called CD4001012; CHOK1SV/CD40
- procedure.summary: flow cytometry, CHOK1SV/human CD40 cells

[
  {
    "binder": "CD4001183 (Fc fusion, humanized 1D5 variant; not shown: wild-type human IgG1 Fc and the Fc-to-scFv linker) scFv: DIQMTQSPSSVSASVGDRVTITCRSSQSLLFSVNQKNYLAWYQQKPGKAPKLLIYWASTLESGVPSRFSGSGSGTDFTLTISSLQPEDFATYYCQHYYSYPWTFGQGTKVEIKGGGGSGGGGSGGGGSGGGGSQVQLVQSGAEVKKPGSSVKVSCKATGYTFSTSWIEWIRQAPGQGLEWIGSILPGSGSTNYNEKFKGKATFTADTSTSTAYMELSSLRSEDTAVYYCARGDDGSYVRWYFDHWGQGTLVTVSS",
    "binding result": "binds"
  },
  {
    "binder": "CD4001192 (Fc fusion, humanized 1D5 variant; not shown: wild-type human IgG1 Fc and the Fc-scFv linker) scFv: DIQMTQSPSSVSASVGDRVTITCRASQSLLFSVNQKNYLAWYQQKPGKAPKLLIYWASTLESGVPSRFSGSGSGTDFTLTISSLQPEDFATYYCQHYYSYPWTFGQGTKVEIKGGGGSGGGGSGGGGSGGGGSQVQLVQSGAEVKKPGSSVKVSCKATGYTFSTSWIEWIRQAPGQGLEWIGSILPGSGSTNYNEKFKGKATFTADTSTSTAYMELSSLRSEDTAVYYCARGDDGSYVRWYFDHWGQGTLVTVSS",
    "binding result": "binds"
  },
  {
    "binder": "CD4001182 (Fc fusion, humanized 1D5 variant; not shown: wild-type human IgG1 Fc and the Fc-to-scFv linker) scFv: DIQMTQSPSSVSASVGDRVTITCRSSQSLLFSVNQKNYLAWYQQKPGKAPKLLIYWASSRQSGVPDRFSGSGSGTDFTLTISSLQPEDFATYYCQHYYSYPWTFGQGTKVEIKGGGGSGGGGSGGGGSGGGGSQVQLVQSGAEVKKPGSSVKVSCKATGYTFSTSWIEWIRQAPGQGLEWIGSILPGSGSTNYNEKFKGKATFTADTSTSTAYMELSSLRSEDTAVYYCARGDDGSYVRWYFDHWGQGTLVTVSS",
    "binding result": "binds"
  }
]
